Assay system: Methylated-DNA--protein-cysteine methyltransferase (Homo sapiens) (UniProt P16455)
Experiment notes: Percent AGT inactivation in HT-29 cell extract at 1 mM
Type: cell-based
Listed molecules paired with reported Inactivation
Write the answer as a number in %, unit excluded.

CC/C=C/CCOc1nc(N)nc2[nH]cnc12; 88

Tell me reported Inactivation for CCOc1nc(N)nc2[nH]cnc12 , tested with Methylated-DNA--protein-cysteine methyltransferase (Homo sapiens) (UniProt P16455).
0

Tell me reported Inactivation for C=CCCCCOc1nc(N)nc2[nH]cnc12 , tested with Methylated-DNA--protein-cysteine methyltransferase (Homo sapiens) (UniProt P16455).
65

Tell me reported Inactivation for CC(C)C1(COc2nc(N)nc3[nH]cnc23)OCCO1 , tested with Methylated-DNA--protein-cysteine methyltransferase (Homo sapiens) (UniProt P16455).
54

Tell me reported Inactivation for CCCCCCCOc1nc(N)nc2[nH]cnc12 , tested with Methylated-DNA--protein-cysteine methyltransferase (Homo sapiens) (UniProt P16455).
10

Tell me reported Inactivation for CC1(C)OCC(COc2nc(N)nc3[nH]cnc23)O1 (stereo unspecified) , tested with Methylated-DNA--protein-cysteine methyltransferase (Homo sapiens) (UniProt P16455).
0

Tell me reported Inactivation for CCOC(C)(COc1nc(N)nc2[nH]cnc12)OCC , tested with Methylated-DNA--protein-cysteine methyltransferase (Homo sapiens) (UniProt P16455).
0

Tell me reported Inactivation for COC(COc1[nH]c(N)nc2ncnc1-2)(OC)c1ccccc1 , tested with Methylated-DNA--protein-cysteine methyltransferase (Homo sapiens) (UniProt P16455).
0

---

Assay system: Methylated-DNA--protein-cysteine methyltransferase (Homo sapiens)
Experiment notes: concentration required to reduce AGT activity to 50% of control rate in intact HT-29 human colorectal carcinoma cells.
Assay type: cell-based
Quantity measured: pIC50
Expect pIC50 as a plain number equal to -log10 of the molar concentration.

Could you share which pIC50 value was measured for C=CCOc1nc(N)nc2nc[nH]c12 ?
5.29

---

Assay system: Methylated-DNA--protein-cysteine methyltransferase (Homo sapiens)
Experiment notes: Percent of AGT inactivation in HT-29 cell extract at 1 mM concentration.
Listed compounds paired with reported Inactivation
# include the unit after the value

Worked set:
CC(C)CCOc1nc(N)nc2[nH]cnc12; 24%
Nc1nc(OCC2CCCC2)c2nc[nH]c2n1; 0%
Nc1nc(OCC2CCC2)c2[nH]cnc2n1; 34%
CC/C=C\CCOc1[nH]c(N)nc2ncnc1-2; 32%

API: the following record is the query input.
Tell me reported Inactivation for CC(C)C(=O)COc1nc(N)nc2nc[nH]c12 , tested with Methylated-DNA--protein-cysteine methyltransferase (Homo sapiens).
31%

---

Assay system: Methylated-DNA--protein-cysteine methyltransferase (Homo sapiens)
Experiment notes: Inhibition of AGT activity to 50% of control rate in HT-29 cell extract
Format: cell-free
Listed molecules paired with reported IC50
Write the answer as a number in µM, unit excluded.

C#CCOc1nc(N)nc2nc[nH]c12; 20
C=C(COc1nc(N)nc2nc[nH]c12)c1ccccc1; 77
C=C(C)COc1nc(N)nc2nc[nH]c12; 25
CCCCOc1nc(N)nc2[nH]cnc12; 493
Nc1nc(OCCc2ccccc2)c2nc[nH]c2n1; 548
C=C(CC)COc1nc(N)nc2[nH]cnc12; 16

Could you share which IC50 value was measured for Nc1nc(OCC2=CCCC2)c2[nH]cnc2n1 ?
0.39

Could you share which IC50 value was measured for Nc1nc(Oc2cccs2)c2[nH]cnc2n1 ?
0.003

Could you share which IC50 value was measured for Nc1nc(OCC2=CCC2)c2[nH]cnc2n1 ?
0.55

---

Assay system: Methylated-DNA--protein-cysteine methyltransferase (Homo sapiens)
Sequence (P16455 whole entry): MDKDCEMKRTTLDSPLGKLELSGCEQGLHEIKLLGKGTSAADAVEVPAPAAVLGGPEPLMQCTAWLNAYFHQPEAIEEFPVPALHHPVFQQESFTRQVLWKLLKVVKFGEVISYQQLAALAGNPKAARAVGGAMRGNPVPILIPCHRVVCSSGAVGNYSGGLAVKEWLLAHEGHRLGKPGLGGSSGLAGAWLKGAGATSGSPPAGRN
Experiment notes: concentration required to reduce AGT activity to 50% of control rate in intact HT-29 human colorectal carcinoma cells
Type: cell-based
Quantity measured: pIC50
Expect pIC50 as a plain number equal to -log10 of the molar concentration.

COc1nc(N)nc2nc[nH]c12; 3.61

API: the following record is the query input.
Tell me reported pIC50 for Nc1nc(OCC2=CCCC2)c2[nH]cnc2n1 , tested with Methylated-DNA--protein-cysteine methyltransferase (Homo sapiens).
6.70

---

Assay system: Methylated-DNA--protein-cysteine methyltransferase (Homo sapiens)
Experiment notes: Inhibition of AGT activity to 50% of control rate in HT-29 cell extract
Assay type: cell-free
pIC50: −log10 of the molar value.
Assign class by pIC50: not lower than 5 means 1; lower than 5 means 0.

Answered cases to consult:
CCCCCCOc1[nH]c(N)nc2ncnc1-2; 0
CCCCCOc1nc(N)nc2[nH]cnc12; 0
CCC(=O)COc1nc(N)nc2nc[nH]c12; 0

Now consider a different molecule.
Does the molecule COc1nc(N)nc2nc[nH]c12 [METHYLGUANINE] have recorded pIC50 that is 5 or more?
0

---

Assay system: Methylated-DNA--protein-cysteine methyltransferase (Homo sapiens, UniProt P16455)
Experiment notes: concentration required to reduce AGT activity to 50% of control rate in HT-29 cell extract.
Assay type: cell-based
pIC50: −log10 of the molar value.
Quantity measured: pIC50

Worked set:
Nc1nc(OCC2CC=CCC2)c2[nH]cnc2n1 (stereo not given); < 3.00
Nc1nc(OCC2CCC2)c2[nH]cnc2n1; < 3.00
CC/C=C\CCOc1[nH]c(N)nc2ncnc1-2; < 3.00
C=C(COc1nc(N)nc2[nH]cnc12)C(C)C; < 3.00
Nc1nc(OCC(=O)c2ccccc2)c2[nH]cnc2n1; < 3.00

Could you share which pIC50 value was measured for Nc1nc(OCC2CCCC2)c2nc[nH]c2n1 ?
< 3.00

Could you share which pIC50 value was measured for CC(C)C(=O)COc1nc(N)nc2nc[nH]c12 ?
< 3.00

Could you share which pIC50 value was measured for Nc1nc(OCC2CCCCC2)c2nc[nH]c2n1 ?
< 3.00

Could you share which pIC50 value was measured for CCCOc1nc(N)nc2nc[nH]c12 ?
< 3.00

Could you share which pIC50 value was measured for CC(C)CCOc1nc(N)nc2nc[nH]c12 ?
< 3.00

---

Assay system: Methylated-DNA--protein-cysteine methyltransferase (Homo sapiens) (UniProt P16455)
Experiment notes: Percent AGT inactivation in HT-29 cell extract at 1 mM
Type: cell-based
Quantity measured: Inactivation
# include the unit after the value

Worked set:
Nc1nc(OCC2CCCCC2)c2nc[nH]c2n1; 0%
CCC(COc1nc(N)nc2[nH]cnc12)(OC)OC; 0%

API: the following record is the query input.
Could you share which Inactivation value was measured for Nc1nc(OCC(=O)c2ccccc2)c2[nH]cnc2n1 ?
0%

---

Listed compounds paired with reported Inactivation
Assay system: Methylated-DNA--protein-cysteine methyltransferase (Homo sapiens)
Experiment notes: Percent of AGT inactivation in HT-29 cell extract at 1 mM concentration.
Write the answer as a number in %, unit excluded.

Worked set:
C=C(COc1nc(N)nc2[nH]cnc12)C(C)C; 22
CCCOc1nc(N)nc2[nH]cnc12; 24

API: the following record is the query input.
Could you share which Inactivation value was measured for Nc1nc(OCC2CC=CCC2)c2[nH]cnc2n1 (stereo not drawn) ?
32

---

Assay system: Methylated-DNA--protein-cysteine methyltransferase (Homo sapiens)
Experiment notes: Inhibition of AGT activity to 50% of control rate in HT-29 cell extract
Assay type: cell-free
pIC50: −log10 of the molar value.
Listed molecules paired with reported pIC50

Could you share which pIC50 value was measured for CCOC(C)(COc1nc(N)nc2[nH]cnc12)OCC ?
< 3.00

Could you share which pIC50 value was measured for CCCCCCCOc1nc(N)nc2[nH]cnc12 ?
< 4.00

Could you share which pIC50 value was measured for CC1(C)OCC(COc2nc(N)nc3[nH]cnc23)O1 (stereo not given) ?
< 3.00

Could you share which pIC50 value was measured for CCOc1nc(N)nc2nc[nH]c12 ?
< 3.00

Could you share which pIC50 value was measured for CCC(COc1nc(N)nc2[nH]cnc12)(OC)OC ?
< 3.00

---

Listed compounds paired with reported pIC50
Assay system: Methylated-DNA--protein-cysteine methyltransferase (Homo sapiens, UniProt P16455)
Sequence (P16455 whole entry): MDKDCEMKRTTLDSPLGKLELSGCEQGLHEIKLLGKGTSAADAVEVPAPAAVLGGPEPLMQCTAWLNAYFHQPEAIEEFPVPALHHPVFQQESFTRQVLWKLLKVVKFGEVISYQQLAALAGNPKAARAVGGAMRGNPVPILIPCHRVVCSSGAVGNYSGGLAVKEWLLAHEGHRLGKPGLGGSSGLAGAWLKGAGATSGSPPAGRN
Experiment notes: Inhibition of AGT activity to 50% of control rate in HT-29 cell extract
Type: cell-free
Expect pIC50 as a plain number equal to -log10 of the molar concentration.

Worked set:
C=CCOc1nc(N)nc2nc[nH]c12; 5.07
C=C(C)[C@H]1CC=C(COc2nc(N)nc3[nH]cnc23)CC1; 5.59
Nc1nc(OCC2=CCCCC2)c2[nH]cnc2n1; 5.80

API: the following record is the query input.
Could you share which pIC50 value was measured for CC(=O)COc1nc(N)nc2[nH]cnc12 ?
3.72
